Reference for the values: paper PMC4929166

target: human GPR55 (Homo sapiens); construct: β-galactosidase enzyme fragment (PathHunter complementation tag); assay: β-Arrestin recruitment assay (PathHunter) at GPR55; type: cell-based; details: Human GPR55 IC50 (extrapolated), Extrapolated values; a full curve could not be determined due to limited solubility
Sequence (Q9Y2T6 whole entry, the tested form may be a part): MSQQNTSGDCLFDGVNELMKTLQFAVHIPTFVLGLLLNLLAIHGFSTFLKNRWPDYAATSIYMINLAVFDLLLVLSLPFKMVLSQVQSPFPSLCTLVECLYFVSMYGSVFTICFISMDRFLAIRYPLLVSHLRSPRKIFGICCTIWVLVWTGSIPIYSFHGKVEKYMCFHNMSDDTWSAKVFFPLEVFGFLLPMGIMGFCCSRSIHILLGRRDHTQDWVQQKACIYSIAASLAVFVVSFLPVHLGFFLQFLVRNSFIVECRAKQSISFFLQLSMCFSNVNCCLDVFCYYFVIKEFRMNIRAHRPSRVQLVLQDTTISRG
REPORTED METRIC: pIC50
Numbers only, as −log10 of the molar value.

Memo: CC1(C)C(C(=O)c2cn(CC3CCOCC3)c3ccccc23)C1(C)C [Compound 46, A-834,735] , reported pIC50: 5.16

###

Target: human GPR18 (Homo sapiens, UniProt Q14330)
Construct: β-galactosidase enzyme fragment (PathHunter complementation tag)
Sequence (Q14330 1-331): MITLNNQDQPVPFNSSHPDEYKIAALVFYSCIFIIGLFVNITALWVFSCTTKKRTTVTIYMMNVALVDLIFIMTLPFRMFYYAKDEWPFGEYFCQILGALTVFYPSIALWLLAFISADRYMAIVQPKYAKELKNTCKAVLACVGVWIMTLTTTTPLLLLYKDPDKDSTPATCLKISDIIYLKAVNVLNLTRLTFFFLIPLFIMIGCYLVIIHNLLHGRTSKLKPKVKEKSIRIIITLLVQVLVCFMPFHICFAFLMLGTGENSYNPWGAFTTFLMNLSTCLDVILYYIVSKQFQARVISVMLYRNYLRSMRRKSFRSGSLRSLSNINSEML
Experiment: β-Arrestin recruitment assay (PathHunter) at GPR18
Assay type: cell-based
Conditions: β-arrestin assay; percent in brackets beside IC50
REPORTED METRIC: Human GPR18 % inhibition (%)
Numbers only, in %.

Hi, could you look up Human GPR18 % inhibition for each item in my list?
1. O=C(Oc1cccc2cccnc12)c1cn(CC2CCCCC2)c2ccccc12
2. O=C(Nc1ccc2ccccc2c1)c1cn(CCCCCF)c2ccccc12 [Compound 7, 5F-NNEI-2-naphthyl-isomer]
3. O=C(c1cccc2ccccc12)c1nn(CCCCCF)c2ccccc12
4. CCCCCn1cc(C(=O)C2C(C)(C)C2(C)C)c2ccccc21

18
5
21
14
